# Tested on: Escherichia coli
# test.summary: Induction of DNA photocleavage activity in Escherichia coli pBR322 plasmid assessed as linear DNA form at 10 uM after 90 mins irradiation at 2.5 mW/cm2 by gel electrophoresis
assay.metric: Activity (%)

Examples with answers:
smiles.representation	Activity, %
NCCCCN(CCCN)C(=O)CCCCNC(=O)c1ccc(-c2c3nc(c(-c4ccc(C(=O)NCCCCC(=O)N(CCCN)CCCCN)cc4)c4ccc([nH]4)c(-c4ccc(C(=O)NCCCCC(=O)N(CCCN)CCCCN)cc4)c4nc(c(-c5ccc(C(=O)NCCCCC(=O)N(CCCN)CCCCN)cc5)c5ccc2[nH]5)C=C4)C=C3)cc1	7
NCCCNCCCCN(CCCN)C(=O)CCCCNC(=O)c1ccc(-c2c3nc(c(-c4ccc(C(=O)NCCCCC(=O)N(CCCN)CCCCNCCCN)cc4)c4ccc([nH]4)c(-c4ccc(C(=O)NCCCCC(=O)N(CCCN)CCCCNCCCN)cc4)c4nc(c(-c5ccc(C(=O)NCCCCC(=O)N(CCCN)CCCCNCCCN)cc5)c5ccc2[nH]5)C=C4)C=C3)cc1	9

[A] C=CC1=C(C)c2cc3[nH]c(cc4nc(cc5[nH]c(cc1n2)c(C)c5CCC(=O)NCCCCC(=O)N(CCCN)CCCCN)C(CCC(=O)NCCCCC(=O)N(CCCN)CCCCN)=C4C)c(C)c3C=C
[B] C=CC1=C(C)c2cc3[nH]c(cc4nc(cc5[nH]c(cc1n2)c(C)c5CCC(=O)NCCCCC(=O)N(CCCN)CCCCNCCCN)C(CCC(=O)NCCCCC(=O)N(CCCN)CCCCNCCCN)=C4C)c(C)c3C=C
Pick one: A or B . Which has the bigger Activity number? Answer with the label corresponding to your selection. A
